Value source: PubChem BioAssay (NCI)

Item-by-item account of TGI
test system: A498 renal; assay: NCI tumour cell line growth inhibition, 48 h

compound	TGI
COc1ccc2c(CC(=O)O)cc(=O)oc2c1	> 100 µM
O=C(O)c1cc(N/C=C2\C(=O)c3ccccc3OC2O)ccc1O (configuration not stated)	77.5 µg/mL
COc1ccc(C2=NN(C(=O)c3ccccc3)C(O)(c3cc(F)c(Cl)cc3Cl)C2)cc1OC (configuration not stated)	> 100 µM
Cc1ccccc1N=Cc1ccc(N(CCC#N)S(=O)(=O)c2ccccc2)cc1	> 100 µM
C/C(=N\Nc1ccc2ccccc2n1)c1ccccc1O	> 100 µM

Fill in: A498 renal TGI for O=C1CSC(=S)N1c1ccc(F)cc1F = > 100 µM

// assay A498 renal, entry C=C1C(=O)OC2C[C@H](C)C3CC(=O)C(C)=C3CC12 (some centres not stated) , TGI value = 43.7 µM

# value of TGI, A498 renal, item CC1=C2C(=O)C3[C@@H](CCC4=CC(=O)CC[C@@]43C)C2CC[C@]12O[C@@H]1C[C@H](C)CN[C@H]1[C@H]2C (some centres not stated) = > 100 µM

Lab entry: A498 renal assay, compound C[C@@H](C(=O)O)c1ccc(-c2ccccc2)c(F)c1 , TGI = > 100 µM

Measured TGI (A498 renal), entry COc1cc(C2c3cc4c(cc3OC3(O)COC(=O)C23)OCO4)cc(OC)c1OC (configuration not stated) : > 100 µM

Param item: CC1(C)N(OC2CCCCO2)C(c2ccccc2)C(c2ccccc2)=[N+]1[O-] (configuration not stated) ; param system: A498 renal; output TGI: > 100 µM

Record Cn1c(=O)oc2cc(C(=S)N3CCC(Cc4ccccc4)CC3)ccc21 has A498 renal TGI equal to > 100 µM
